Provide the reported self-cleavage kobs at 2500 uM GlcN6P of each item.
B1: glmS ribozyme (parent)
chain: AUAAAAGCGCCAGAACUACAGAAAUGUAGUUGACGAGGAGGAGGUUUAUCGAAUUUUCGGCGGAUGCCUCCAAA

- Variants of: B1
- protocolText: self-cleavage kobs at 2500 uM GlcN6P; higher = faster cleavage; RNA array
- conditionSummary: with glucosamine-6-phosphate
Variants at the floor of the assay were thinned out.
Numbers only here, please. The scale is s⁻¹.

Which self-cleavage kobs at 2500 uM GlcN6P value is on record for AUAAAAGCGCCUGAACUACAGAAAUGUAGUUGACGAGGAAGAGGUUUAUCGAAUUUUCGGCGGAUGCCUCCAAA [A12U G40A] ?
0.00929

Which self-cleavage kobs at 2500 uM GlcN6P value is on record for AUAAAAGCGCCAGAACUACAGAAAUGUAGUUGACGCGGAGGAGGUUUAUCGAAUUUUCGGGGUAUGCAUCCAAA [A36C C61G G63U C68A] ?
0.000112

Which self-cleavage kobs at 2500 uM GlcN6P value is on record for AUAAAAGCGCCAGAACUACAGAAAUGUAGUGGACGAGGAGGAGGUUUAUCGAAUUUUCGGCGGAUGCGUCCAAA [U31G C68G] ?
6.11e-05

Which self-cleavage kobs at 2500 uM GlcN6P value is on record for AUAAAAGCGCCAGAACUACAGAAAUGUAGUUGACGAGGAGGAGGUUUAUCGAUUUUCCGGCGGAUGCCUCCAAA [A53U U57C] ?
0.000115

Which self-cleavage kobs at 2500 uM GlcN6P value is on record for AUAAAAGCGCCAGAACUACAGAAAUGUAGUAGACGAGGAGGAGGUUGAUCGAAUUUUCGGCGGAUGCCUCCAAA [U31A U47G] ?
0.00264

Which self-cleavage kobs at 2500 uM GlcN6P value is on record for AUAAAAGCGCCAGAACUACAGAAAUGUAGUUGACGAGGCGGAGGUUUAUCGAACUUUCGGCGGAUGCCUCCAAA [A39C U54C] ?
0.00481

Which self-cleavage kobs at 2500 uM GlcN6P value is on record for AUAAAAGCGCCAGAACUACAGAAAUGUAGUUGACGAGGAGGAGGCUUAUCGAAUUUUCGGCGGAUGCCUUCAAA [U45C C70U] ?
0.00283

Which self-cleavage kobs at 2500 uM GlcN6P value is on record for AUAAAAGCGCCAGAACUACAGAAAUGUAGUUGACGAGGAGGAGGUGUAUCGAAUUUUCGGCGGAUGCGUCCAAA [U46G C68G] ?
7.97e-05

Which self-cleavage kobs at 2500 uM GlcN6P value is on record for AUAAAAGCGCCAGAACUACAGAAAUGUAGUUGUAGAGAAGGAGGUUUAUAGAAUUUUCGGCGGAUGCCUGCAAA [A33U C34A G38A C50A C70G] ?
0.00153

Which self-cleavage kobs at 2500 uM GlcN6P value is on record for AUAAAAGCGUCAGAACUACAGAAAUGUAGUUGACGAGGAGGAGGUUUAUCGAAUUUUCGGAGGAUGGCUCGAAA [C10U C61A C67G C71G] ?
7.34e-05

Which self-cleavage kobs at 2500 uM GlcN6P value is on record for AUAAAAGCGCCAGAACUACAGAAAUGUAGUGGACGAGGAGGAGGUUUAUCGAAUUUUCGGCGGAUGCCACCAAA [U31G U69A] ?
0.000288

Which self-cleavage kobs at 2500 uM GlcN6P value is on record for AUAAAAGCGCCAGAACUACAGAAAUGUAGUUGACGAGGAGGAGGUUUAUCGAAUUUUCGGCGGAUGCCACGAAA [U69A C71G] ?
4.01e-05
